TEST TARGET: T1, Bbc1, P47068
T1 sequence (P47068 1-78, looked up): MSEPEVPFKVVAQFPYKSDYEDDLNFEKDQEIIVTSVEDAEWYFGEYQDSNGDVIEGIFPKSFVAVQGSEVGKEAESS
METHOD NOTES: SPOT array
REPORTED CONDITIONS: median of control spots 796
Property: SPOT intensity; scope: individual binders
ENDPOINT NAME: SPOT intensity

* PPIPIVPSSPAPPLP | 0
* RVRKTHVPASKRPSG | 11
* QPPLPSSAPPIPTSH | 0
* LLRRTIPKRPFYHVL | 184
* RRLRDKYKLPIVDAD | 14
* PLRRTVMSLPGNHDI | 0
* VDFTLPPPPPPPGLD | 0
